- Test system: SARS-CoV-2 (strain USA-WA1/2020)
- test method notes: microbe, parasite or virus in culture
- Assay type: cell-based
- condition: Severe acute respiratory syndrome coronavirus 2; Table 2; SARS-CoV-2 infected HeLa-ACE2 cells; read-out: CoV-2 HeLa EC50
The following molecules are listed with their measured log10 of EC50 values.
Please keep in mind that the values are log10 of EC50 expressed in nM.

Worked cases, log10 of EC50 given:
Entry Cc1cncc(C(=O)N2CCN(C(c3ccccc3)c3ccc(S(C)(=O)=O)cc3)CC2)c1 (stereo not drawn) , log10 of EC50 reported as 3.40

Item: O=C(c1cncc(Cl)c1)N1CCN(C2c3ccccc3CCc3ccccc32)CC1 | log10 of EC50: 2.95

// field: log10 of EC50; key: O=C(c1cnccc1Cl)N1CCN(C(c2ccccc2)c2ccccc2)CC1 ; value = 3.48

// log10 of EC50 value for O=C(c1cncc(Cl)c1)N1CCN(C(c2ccccc2)c2cccnc2)CC1 (stereo not drawn) : 2.91

Measured log10 of EC50 of O=C(c1cncc(Cl)c1)N1CCN(C(c2ccccc2)c2cccc(F)c2)CC1 (stereo not drawn) : 2.66

Per the records, this molecule ( O=C(c1cncc(Br)c1)N1CCC(C(O)(c2ccccc2)c2ccccc2)CC1 ) has log10 of EC50 equal to 2.71

Record O=C(c1cncc2[nH]ccc12)N1CCN(C2c3ccccc3CS(=O)(=O)c3ccccc32)CC1 (stereo not drawn) , field log10 of EC50: 1.94

Kindly note the recorded log10 of EC50 for O=C(c1cccnc1)N1CCN(C2c3ccccc3CCc3ccccc32)CC1 , which is 3.02

Continuing:
get_value(item= O=C(c1cncc2[nH]ccc12)N1CCC(=C2c3ccccc3CS(=O)(=O)c3ccccc32)CC1 , readout=log10 of EC50) returns 1.76

Value of log10 of EC50 reported for the molecule O=C(c1cncc(Br)c1)N1CCC(=C2c3ccccc3CS(=O)(=O)c3ccccc32)CC1 is 1.78

Lab note: O=C(c1cc[nH]c(=O)c1)N1CCN(C(c2ccccc2)c2ccccc2)CC1 gave log10 of EC50 of 3.91

For reference, reported log10 of EC50 for O=C(c1cncc(F)c1)N1CCN(C2c3ccccc3CCc3ccccc32)CC1 stands at 2.85

Just so you know, measured log10 of EC50 for Cc1cncc(C(=O)N2CCN(C(c3ccccc3)c3cccc(F)c3)CC2)c1 (stereo not drawn) came out at 2.32

Documented log10 of EC50 of COc1cncc(C(=O)N2CCN(C3c4ccccc4CCc4ccccc43)CC2)c1 : 2.96

In plain terms, Cc1cncc(C(=O)N2CCC(=C3c4ccccc4CS(=O)(=O)c4ccccc43)CC2)c1 has a documented log10 of EC50 of 1.62

Measured log10 of EC50 of Cc1ccc(C(=O)N2CCN(C(c3ccccc3)c3ccccc3)CC2)cn1 : 3.24

Value source: patent US20250084091A1
